Reference source for all entries: patent US10894786B2

Measured Kd, listed per entry for reference.
Biological target: UniProt:Q9NYV4
Sequence (Q9NYV4 whole entry, species assumed): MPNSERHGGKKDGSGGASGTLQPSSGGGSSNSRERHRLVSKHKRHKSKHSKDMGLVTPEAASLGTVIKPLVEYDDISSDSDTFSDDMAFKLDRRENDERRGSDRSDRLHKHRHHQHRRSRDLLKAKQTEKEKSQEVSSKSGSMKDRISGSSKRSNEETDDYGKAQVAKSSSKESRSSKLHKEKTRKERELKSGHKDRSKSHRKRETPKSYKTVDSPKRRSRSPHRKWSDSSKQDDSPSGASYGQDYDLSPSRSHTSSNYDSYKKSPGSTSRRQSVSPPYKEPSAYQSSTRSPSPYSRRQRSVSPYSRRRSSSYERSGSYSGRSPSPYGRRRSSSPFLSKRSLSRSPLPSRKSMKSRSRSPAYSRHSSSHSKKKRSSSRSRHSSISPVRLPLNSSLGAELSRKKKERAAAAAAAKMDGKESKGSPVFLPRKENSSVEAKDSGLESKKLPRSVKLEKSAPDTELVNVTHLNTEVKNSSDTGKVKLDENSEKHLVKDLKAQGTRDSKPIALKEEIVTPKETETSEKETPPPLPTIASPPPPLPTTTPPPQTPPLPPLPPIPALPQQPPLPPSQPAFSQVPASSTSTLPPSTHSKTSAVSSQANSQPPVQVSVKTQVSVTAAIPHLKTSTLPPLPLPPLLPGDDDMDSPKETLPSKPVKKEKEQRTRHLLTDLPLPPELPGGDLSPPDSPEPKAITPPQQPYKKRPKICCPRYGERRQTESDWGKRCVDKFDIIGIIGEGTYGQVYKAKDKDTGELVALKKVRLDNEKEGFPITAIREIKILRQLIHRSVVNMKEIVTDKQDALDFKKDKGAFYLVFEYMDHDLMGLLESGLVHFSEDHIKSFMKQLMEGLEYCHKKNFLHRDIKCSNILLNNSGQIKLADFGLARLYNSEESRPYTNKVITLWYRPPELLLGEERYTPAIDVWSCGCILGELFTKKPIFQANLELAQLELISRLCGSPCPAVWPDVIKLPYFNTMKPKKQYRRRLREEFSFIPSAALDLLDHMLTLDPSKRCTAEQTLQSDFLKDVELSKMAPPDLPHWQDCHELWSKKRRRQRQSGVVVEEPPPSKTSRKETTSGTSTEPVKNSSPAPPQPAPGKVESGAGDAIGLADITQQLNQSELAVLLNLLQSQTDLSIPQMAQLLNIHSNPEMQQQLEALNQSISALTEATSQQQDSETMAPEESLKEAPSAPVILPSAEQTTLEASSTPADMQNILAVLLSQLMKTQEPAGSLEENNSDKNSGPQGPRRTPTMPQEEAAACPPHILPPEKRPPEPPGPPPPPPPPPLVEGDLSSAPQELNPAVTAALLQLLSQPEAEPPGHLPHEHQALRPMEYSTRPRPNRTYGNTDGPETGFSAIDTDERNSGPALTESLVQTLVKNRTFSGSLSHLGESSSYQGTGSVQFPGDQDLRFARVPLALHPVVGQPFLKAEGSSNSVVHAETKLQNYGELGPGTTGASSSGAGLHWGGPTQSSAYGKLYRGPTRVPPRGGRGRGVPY
measured_attribute: Kd

>>> print(df.to_string())
                                   molecule        result
0  C=CC(=O)N1CCC=C(c2ccc(C(C)C(=O)Nc3cc(C4CC4)[nH]n3)cn2)C1 (single isomer, unassigned) [Compound 37]       < 25 nM
1  C=CC(=O)N1CC=C(c2ccc(C(C)C(=O)Nc3cc(C4CC4)[nH]n3)cn2)CC1 (stereo not shown) [Compound 4]       < 25 nM
2  C=CC(=O)N1CCC=C(c2ccc(C(C)C(=O)Nc3cc(C4CC4)[nH]n3)cn2)C1 (stereo not shown) [Compound 35]       < 25 nM
3  C=CC(=O)N1CC=C(c2ccc(C(C)C(=O)Nc3cc(C4CC4)[nH]n3)cn2)CC1 (single isomer, unassigned) [Compound 6]       < 25 nM
4  C=CC(=O)N1CCC=C(c2ccc(C(C)C(=O)Nc3cc(C4CC4)[nH]n3)cc2)CC1 (stereo not shown)  25 to 100 nM
5  C=CC(=O)N1CCC=C(c2ccc(C(C)C(=O)Nc3cc(C4CC4)[nH]n3)cn2)C1 (single isomer, unassigned) [Compound 36]  25 to 100 nM
6  C=CC(=O)N1CCN(c2ccc(C(C)C(=O)Nc3cc(C4CC4)[nH]n3)cc2)CC1 (stereo not shown) [Compound 17]      > 100 nM
7  C=CC(=O)NC1CCC(c2ccc(C(C)C(=O)Nc3cc(C4CC4)n[nH]3)cc2)CC1 (single isomer, unassigned)       < 25 nM
8  C=CC(=O)N1CCN(c2ccc(C(C)C(=O)Nc3cc(C4CC4)[nH]n3)cc2)CC1 (single isomer, unassigned) [Compound 18]  25 to 100 nM
9  C=CC(=O)N1CC=C(c2ccc(C(C)C(=O)Nc3cc(C4CC4)[nH]n3)cn2)CC1 (single isomer, unassigned) [Compound 5]  25 to 100 nM

###

Listed here: compounds with reported pIC50 for CDK13 (Homo sapiens (Human), UniProt Q14004).
pIC50: −log10 of the molar value.
measured_attribute: pIC50

>>> df
                                   compound                            assayed_system  measured_attribute  result
0  C/C=C/C(=O)N1CCC=C(c2ccc(CC(=O)Nc3cc(C4CC4)[nH]n3)cn2)C1  CDK13 (Homo sapiens (Human), UniProt Q14004)               pIC50    8.52
1  C=CC(=O)N1CCC(c2ccc(C(C)C(=O)Nc3cc(C4CC4)[nH]n3)cn2)CC1 (stereo not shown)  CDK13 (Homo sapiens (Human), UniProt Q14004)               pIC50    7.55
2  C=CC(=O)N1CC=C(c2ccc(C(C)C(=O)Nc3cc(C4CC4)[nH]n3)cn2)C1 (stereo not shown) [Compound 46]  CDK13 (Homo sapiens (Human), UniProt Q14004)               pIC50    8.16
3  C=CC(=O)N1CC=C(c2ccc(CC(=O)Nc3cc(C4CC4)[nH]n3)cn2)C1  CDK13 (Homo sapiens (Human), UniProt Q14004)               pIC50    9.05

###

Target: CDK7 (Homo sapiens (Human), UniProt P50613)
Sequence (P50613 whole entry, looked up, species assumed): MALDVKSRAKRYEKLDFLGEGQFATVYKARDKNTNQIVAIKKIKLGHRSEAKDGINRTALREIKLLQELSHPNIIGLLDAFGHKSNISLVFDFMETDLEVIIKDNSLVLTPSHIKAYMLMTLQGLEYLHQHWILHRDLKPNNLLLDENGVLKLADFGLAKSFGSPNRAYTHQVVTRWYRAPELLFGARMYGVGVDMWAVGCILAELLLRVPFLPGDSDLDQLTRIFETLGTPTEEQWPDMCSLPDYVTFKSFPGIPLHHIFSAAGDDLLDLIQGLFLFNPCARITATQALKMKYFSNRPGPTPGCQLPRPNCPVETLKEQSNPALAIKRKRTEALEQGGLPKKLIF
Sequence (P51946 whole entry partner, looked up, species assumed): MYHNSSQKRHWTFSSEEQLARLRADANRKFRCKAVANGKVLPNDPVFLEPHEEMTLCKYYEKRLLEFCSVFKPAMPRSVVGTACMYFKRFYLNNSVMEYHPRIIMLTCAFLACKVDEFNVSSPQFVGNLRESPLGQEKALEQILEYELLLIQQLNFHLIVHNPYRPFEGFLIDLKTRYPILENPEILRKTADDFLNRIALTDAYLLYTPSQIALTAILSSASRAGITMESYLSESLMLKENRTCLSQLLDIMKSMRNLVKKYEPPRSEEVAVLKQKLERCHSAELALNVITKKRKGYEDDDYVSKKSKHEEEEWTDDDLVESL
Sequence (P51948 whole entry partner, looked up, species assumed): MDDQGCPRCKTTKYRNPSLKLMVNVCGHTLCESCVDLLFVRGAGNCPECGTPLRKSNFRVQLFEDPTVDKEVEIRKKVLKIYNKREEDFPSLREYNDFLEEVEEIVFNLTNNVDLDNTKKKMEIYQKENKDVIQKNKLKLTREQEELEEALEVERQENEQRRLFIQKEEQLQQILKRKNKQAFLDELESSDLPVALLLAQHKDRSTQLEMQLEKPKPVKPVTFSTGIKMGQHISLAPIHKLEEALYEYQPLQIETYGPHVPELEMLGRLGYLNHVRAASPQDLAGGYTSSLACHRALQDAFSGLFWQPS
Experiment: Biochemical assay for CDK7, LANCE TR-FRET
Settings: read-out: CDK 7 IC50
pIC50: −log10 of the molar value.
measured_attribute: pIC50

                                   compound                            assayed_system  result
0  C#CC(=O)N1CC=C(c2ccc(C(C)C(=O)Nc3cc(C4CC4)[nH]n3)cn2)CC1 (centres unmarked)  CDK7 (Homo sapiens (Human), UniProt P50613)    7.92
1  C=CC(=O)N1CCN(c2ccc(C(C)C(=O)Nc3cc(C4CC4)[nH]n3)cc2)CC1 (centres unmarked)  CDK7 (Homo sapiens (Human), UniProt P50613)    5.10

###

Molecular target: CDK13 (Homo sapiens (Human))
Test: Biochemical assay for CDK13, LanthaScreen Eu Kinase Binding Assay
Conditions: ratio of IC50
measured_attribute: Ratio CDK7/CDK13

In [3]: df
Out[3]:
                                   compound  result
0  C=CC(=O)NC1CCC(c2ccc(C(C)C(=O)Nc3cc(C4CC4)n[nH]3)cc2)CC1 (stereo not shown) [Compound 10]  305.11
1  C=CC(=O)N1CC=C(c2ccc(C(C)C(=O)Nc3cc(C4CC4)[nH]n3)cn2)CC1 (single isomer, unassigned) [Compound 5]  129.87
2  C=CC(=O)N1CCC=C(c2ccc(C(C)C(=O)Nc3cc(C4CC4)[nH]n3)cc2)CC1 (stereo not shown)  313.57
3  C=CC(=O)N1CCN(c2ccc(C(C)C(=O)Nc3cc(C4CC4)[nH]n3)cc2)CC1 (stereo not shown) [Compound 17]   98.27

###

Catalogue of log10 of IC50 readings, one per entry.
Target: CDK13 (Homo sapiens (Human), UniProt Q14004)
Sequence (Q14004 whole entry, looked up, species assumed): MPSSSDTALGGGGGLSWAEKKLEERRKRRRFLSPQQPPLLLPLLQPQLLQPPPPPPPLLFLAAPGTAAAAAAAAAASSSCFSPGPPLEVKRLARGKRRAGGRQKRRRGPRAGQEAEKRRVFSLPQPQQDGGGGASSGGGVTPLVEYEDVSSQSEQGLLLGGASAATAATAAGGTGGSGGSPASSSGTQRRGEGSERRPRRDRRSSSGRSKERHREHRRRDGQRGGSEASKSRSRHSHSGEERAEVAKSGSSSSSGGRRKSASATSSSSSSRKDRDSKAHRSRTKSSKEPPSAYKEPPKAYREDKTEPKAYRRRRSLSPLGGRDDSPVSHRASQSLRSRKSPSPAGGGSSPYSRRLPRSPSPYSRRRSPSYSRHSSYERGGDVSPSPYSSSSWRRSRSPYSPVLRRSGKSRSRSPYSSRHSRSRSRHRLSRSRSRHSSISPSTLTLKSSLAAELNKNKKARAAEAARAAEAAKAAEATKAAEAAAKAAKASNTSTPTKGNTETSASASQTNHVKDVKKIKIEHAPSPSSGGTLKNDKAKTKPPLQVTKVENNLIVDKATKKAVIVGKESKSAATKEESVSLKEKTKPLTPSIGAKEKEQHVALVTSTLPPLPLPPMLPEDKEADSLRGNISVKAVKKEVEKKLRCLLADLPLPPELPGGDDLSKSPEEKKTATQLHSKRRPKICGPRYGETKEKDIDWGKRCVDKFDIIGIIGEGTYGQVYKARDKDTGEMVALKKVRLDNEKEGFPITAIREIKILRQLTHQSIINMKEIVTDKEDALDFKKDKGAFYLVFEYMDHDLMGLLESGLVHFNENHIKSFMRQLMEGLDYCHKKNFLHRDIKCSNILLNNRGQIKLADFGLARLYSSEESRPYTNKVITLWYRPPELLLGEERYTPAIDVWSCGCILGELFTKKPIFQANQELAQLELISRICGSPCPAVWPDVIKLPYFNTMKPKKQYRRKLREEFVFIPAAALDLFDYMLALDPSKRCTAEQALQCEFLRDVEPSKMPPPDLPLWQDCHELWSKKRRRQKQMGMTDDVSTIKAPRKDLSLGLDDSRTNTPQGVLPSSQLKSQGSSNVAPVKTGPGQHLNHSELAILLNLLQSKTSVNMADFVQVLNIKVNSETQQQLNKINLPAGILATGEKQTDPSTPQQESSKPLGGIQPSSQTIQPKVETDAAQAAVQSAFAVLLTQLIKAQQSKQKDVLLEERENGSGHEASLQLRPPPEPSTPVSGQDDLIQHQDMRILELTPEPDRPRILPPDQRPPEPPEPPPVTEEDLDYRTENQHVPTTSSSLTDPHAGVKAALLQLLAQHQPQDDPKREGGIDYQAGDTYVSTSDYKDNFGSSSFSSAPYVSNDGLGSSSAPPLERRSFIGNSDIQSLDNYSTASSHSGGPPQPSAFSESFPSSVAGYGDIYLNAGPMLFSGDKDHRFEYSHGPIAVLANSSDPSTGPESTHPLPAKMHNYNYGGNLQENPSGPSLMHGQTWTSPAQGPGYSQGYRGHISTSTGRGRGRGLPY
Sequence (O75909 whole entry partner, looked up, species assumed): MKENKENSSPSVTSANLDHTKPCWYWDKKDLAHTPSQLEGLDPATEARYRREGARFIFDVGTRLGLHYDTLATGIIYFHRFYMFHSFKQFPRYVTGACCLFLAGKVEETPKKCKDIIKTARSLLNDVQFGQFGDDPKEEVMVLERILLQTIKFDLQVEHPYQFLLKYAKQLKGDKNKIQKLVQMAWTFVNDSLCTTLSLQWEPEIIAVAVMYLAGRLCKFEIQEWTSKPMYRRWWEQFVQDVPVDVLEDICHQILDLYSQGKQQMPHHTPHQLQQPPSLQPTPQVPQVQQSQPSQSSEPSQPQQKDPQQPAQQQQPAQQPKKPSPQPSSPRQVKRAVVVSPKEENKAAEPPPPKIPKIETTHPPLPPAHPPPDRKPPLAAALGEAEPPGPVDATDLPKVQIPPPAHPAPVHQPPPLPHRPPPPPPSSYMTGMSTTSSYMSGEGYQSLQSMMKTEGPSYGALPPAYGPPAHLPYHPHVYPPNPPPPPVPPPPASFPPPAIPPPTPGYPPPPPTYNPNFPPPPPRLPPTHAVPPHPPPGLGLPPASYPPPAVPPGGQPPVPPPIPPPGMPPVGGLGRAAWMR
measured_attribute: log10 of IC50 (log10 of the value in nM)

>>> df
                                    compound  measured_attribute  result
 0  C=CC(=O)N1CC=C(c2ccc(C(C(=O)Nc3cc(C4CC4)[nH]n3)C(C)C)cn2)CC1 (stereo not drawn)       log10 of IC50    2.60
 1  C[C@H](C(=O)Nc1cc(C2CC2)[nH]n1)c1ccc(C2=CCN(C(=O)/C=C/CN(C)C)CC2)cc1       log10 of IC50    1.27
 2  C=CC(=O)N1CCN(c2ccc(C(C)C(=O)Nc3cc(C4CC4)[nH]n3)cc2)CC1 (stereo not drawn) [Compound 17]       log10 of IC50    1.91
 3  C#CC(=O)N1CCC=C(c2ccc(CC(=O)Nc3cc(C4CC4)[nH]n3)cn2)C1       log10 of IC50    1.92
 4  C[C@H](C(=O)Nc1cc(C2CC2)[nH]n1)c1ccc(C2=CCN(C(=O)/C=C/CN3CCOCC3)CC2)cc1       log10 of IC50    1.54
 5  C=CC(=O)N1CC=C(c2ccc(C(C)C(=O)Nc3cc(C4CC4)[nH]n3)cn2)CC1 (single isomer, unassigned) [Compound 5]       log10 of IC50    1.89
 6  C=CC(=O)NC1CCN(c2ccc(C(C)C(=O)Nc3cc(C4CC4)[nH]n3)cc2)CC1 (stereo not drawn)       log10 of IC50    1.86
 7  CC#CC(=O)N1CCC=C(c2ccc(C(C)C(=O)Nc3cc(C4CC4)[nH]n3)cn2)C1 (stereo not drawn)       log10 of IC50    1.28
 8  C=CC(=O)N1CCN(c2ccc(C(C)C(=O)Nc3cc(C4CC4)[nH]n3)cn2)CC1 (stereo not drawn)       log10 of IC50    1.97
 9  C=CC(=O)N1CCN(c2ccc(C(C)C(=O)Nc3cc(C4CC4)[nH]n3)cc2)CC1 (single isomer, unassigned) [Compound 19]       log10 of IC50    3.76
10  C=CC(=O)N1CCC(c2ccc([C@H](C)C(=O)Nc3cc(C4CC4)[nH]n3)cc2)CC1       log10 of IC50    0.85
11  C=CC(=O)N1CC=C(c2ccc(C(C)C(=O)Nc3cc(C4CC4)[nH]n3)cc2F)CC1 (stereo not drawn) [Compound 45]       log10 of IC50    2.41
12  C=CC(=O)N1CCC=C(c2ccc(C(C)C(=O)Nc3cc(C4CC4)[nH]n3)cn2)C1 (single isomer, unassigned) [Compound 37]       log10 of IC50    0.48
13  C=CC(=O)N1CCC=C(c2ccc(C(C)C(=O)Nc3cc(C4CC4)[nH]n3)cc2F)C1 (stereo not drawn)       log10 of IC50    1.94
14  C=CC(=O)N1CC=C(c2ccc(C(C)C(=O)Nc3cc(C4CC4)[nH]n3)cn2)CC1 (single isomer, unassigned) [Compound 6]       log10 of IC50    0.78

###

Parameter 'readout' = IC50; parameter 'system' = UniProtKB Q14004.
measured_attribute: IC50

>>> print(df.to_string())
                                   compound   result
0  C=CC(=O)N1CCCC(c2ccc(C(C)C(=O)Nc3cc(C4CC4)[nH]n3)cn2)C1 (stereo not shown)    29 nM
1  C=CC(=O)N1CCN(c2ccc(C(C)C(=O)Nc3cc(C4CC4)[nH]n3)cc2)CC1 (single isomer, unassigned) [Compound 18]  11.7 nM
2  C#CC(=O)N1CC=C(c2ccc(C(C)C(=O)Nc3cc(C4CC4)[nH]n3)cn2)CC1 (stereo not shown)     7 nM
3  C=CC(=O)N1CCC=C(c2ccc(C(C)C(=O)Nc3cc(C4CC4)[nH]n3)cn2)C1 (single isomer, unassigned) [Compound 36]   153 nM
